Where do the numbers come from? From patent US20240116985A1.

Listed next: entries and their corresponding log10 EC50.
- EXPERIMENTAL_SYSTEM: T1, full-length beta-Catenin (Uniprot ID P35222) (Homo sapiens (Human), UniProt P35222 1-781)
- T1 construct: Said to be full-length in the fluorescence polarization assay; also called bCat; B-Catenin
- T1 sequence: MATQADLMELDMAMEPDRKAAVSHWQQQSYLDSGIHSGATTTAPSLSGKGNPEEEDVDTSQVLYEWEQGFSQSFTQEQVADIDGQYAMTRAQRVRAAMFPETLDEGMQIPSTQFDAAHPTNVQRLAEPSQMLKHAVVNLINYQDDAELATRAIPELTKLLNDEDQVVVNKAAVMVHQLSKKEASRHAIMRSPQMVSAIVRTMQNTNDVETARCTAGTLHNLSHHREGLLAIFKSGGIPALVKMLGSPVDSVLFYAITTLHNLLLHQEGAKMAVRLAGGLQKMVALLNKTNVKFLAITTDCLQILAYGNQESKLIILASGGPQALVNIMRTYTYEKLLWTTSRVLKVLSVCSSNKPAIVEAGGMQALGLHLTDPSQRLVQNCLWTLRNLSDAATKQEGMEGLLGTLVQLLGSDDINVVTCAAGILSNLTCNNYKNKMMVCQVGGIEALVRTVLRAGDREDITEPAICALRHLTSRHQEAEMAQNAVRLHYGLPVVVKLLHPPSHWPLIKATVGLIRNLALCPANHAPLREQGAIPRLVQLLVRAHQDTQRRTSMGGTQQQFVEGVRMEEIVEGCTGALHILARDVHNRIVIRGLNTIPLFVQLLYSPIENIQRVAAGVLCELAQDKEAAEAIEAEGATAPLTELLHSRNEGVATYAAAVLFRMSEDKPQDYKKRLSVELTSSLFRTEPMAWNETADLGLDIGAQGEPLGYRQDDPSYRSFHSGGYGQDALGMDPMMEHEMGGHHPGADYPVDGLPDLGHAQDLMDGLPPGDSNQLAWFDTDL
- ASSAY_OVERVIEW: fluorescence polarization competition; peptide titrated against 10 nM full-length beta-catenin + 10 nM 5FAM-TCF4(10-53) probe
Starred links: 1 amine or outer side, 2 acyl side, 3 side chain; linkers in the order of their positions; H or OH if unused. Positions of bridges follow the written chain, without caps; N, C: chain ends. Non-standard residues stand in square brackets, D forms with d. Primed or numbered codes have the meaning given here. B5(16) = 2-amino-2-(pent-4-en-1-yl)hept-6-enoic acid = 2,2-bis(4-pentenyl)glycine (stitching residue), C=CCCCC(CCCC=C)(N[*:1])C(=O)[*:2]; Bta = N[C@@H](Cc1csc2ccccc12)C(=O)O; αAllylPro = C=CC[C@@]1(C(=O)O)CCCN1; S8 = C=CCCCCCC[C@](C)(N)C(=O)O
EXPERIMENTAL_READOUT: log10 EC50 (log10 of the value in nM)

# BINDER, EXPERIMENTAL_READOUT, OBSERVED
rows = [
    ("XDLXDEAAFTXFXQ (not fully specified; Ac-PL3-Asp-Leu-B5-Asp-Glu-Ala-Ala-Phe-Thr-S8-Phe-BztA-Gln-NH2; N-terminal acetyl, C-terminal amide; non-natural PL3 (1), B5 (4), S8 (11), BztA (13); staples PL3-B5 and B5-S8 by olefin metathesis, Stapled peptide; Later-eluting staple isomer composition) [I-623]", "log10 EC50", 2.01),
    ("XDLXDEAAFTXFXH (not fully specified; Ac-PL3-Asp-Leu-B5-Asp-Glu-Ala-Ala-Phe-Thr-S8-Phe-BztA-His-NH2; N-terminal acetyl, C-terminal amide; non-natural PL3 (1), B5 (4), S8 (11), BztA (13); staples PL3-B5 and B5-S8 by olefin metathesis, Stapled peptide; Later-eluting staple isomer composition) [I-618]", "log10 EC50", 2.13),
    ("XDIXDEAAFQXFXP (not fully specified; Ac-PL3-Asp-Ile-B5-Asp-Glu-Ala-Ala-Phe-Gln-S8-Phe-BztA-Pro-NH2; N-terminal acetyl, C-terminal amide; non-natural PL3 (1), B5 (4), S8 (11), BztA (13); staples PL3-B5 and B5-S8 by olefin metathesis, Stapled peptide; Earlier-eluting staple isomer composition) [I-637]", "log10 EC50", 3.70),
    ("Ac-[αAllylPro]DI[B5(16)]DEAAFQ[S8]F[Bta]Y-NH2 (staple 1-4, 4-11, Stapled peptide) [I-636]", "log10 EC50", 2.30),
    ("XDIXDRAAFQXFXQ (not fully specified; Ac-PL3-Asp-Ile-B5-Asp-Arg-Ala-Ala-Phe-Gln-S8-Phe-BztA-Gln-NH2; N-terminal acetyl, C-terminal amide; non-natural PL3 (1), B5 (4), S8 (11), BztA (13); staples PL3-B5 and B5-S8 by olefin metathesis, Stapled peptide; Later-eluting staple isomer composition) [I-614]", "log10 EC50", 3.06),
]
